# System: IL-2 expression in primary mouse CD4+ T cells (mammalian calcineurin)
# protocol details: In vitro immunosuppressive activity, IL-2 expression (Example 3)
# Type: cell-based
# run parameters: 72 h
pIC50: −log10 of the molar value.
# maps each entry to its pIC50

- compound: "CC[C@@H]1/C=C(\\C)C[C@H](C)C[C@H](OC)[C@H]2O[C@@](O)(C(=O)C(=O)N3CCCC[C@H]3C(=O)O[C@H](/C(C)=C/C3CC[C@@H](O)[C@H](OC)C3)[C@H](C)[C@@H](O)C/C1=N/NS(C)(=O)=O)[C@H](C)C[C@@H]2OC (stereo partly shown) [JH-FK-23]"
  assay target: "IL-2 expression in primary mouse CD4+ T cells (mammalian calcineurin)"
  pIC50: 7.15
- compound: "CC[C@@H]1/C=C(\\C)C[C@H](C)C[C@H](OC)[C@H]2O[C@@](O)(C(=O)C(=O)N3CCCC[C@H]3C(=O)O[C@H](/C(C)=C/C3CC[C@@H](O)[C@H](OC)C3)[C@H](C)[C@@H](O)C/C1=N/NC(=O)c1ccc(N)cc1)[C@H](C)C[C@@H]2OC (stereo partly shown) [JH-FK-20]"
  assay target: "IL-2 expression in primary mouse CD4+ T cells (mammalian calcineurin)"
  pIC50: 7.75
- compound: "CC[C@@H]1/C=C(\\C)C[C@H](C)C[C@H](OC)[C@H]2O[C@@](O)(C(=O)C(=O)N3CCCC[C@H]3C(=O)O[C@H](/C(C)=C/C3CC[C@@H](O)[C@H](OC)C3)[C@H](C)[C@@H](O)C/C1=N/NC(=O)c1ccncc1)[C@H](C)C[C@@H]2OC (stereo partly shown) [JH-FK-09]"
  assay target: "IL-2 expression in primary mouse CD4+ T cells (mammalian calcineurin)"
  pIC50: 7.95
- compound: "CC[C@@H]1/C=C(\\C)C[C@H](C)C[C@H](OC)[C@H]2O[C@@](O)(C(=O)C(=O)N3CCCC[C@H]3C(=O)O[C@H](/C(C)=C/C3CC[C@@H](O)[C@H](OC)C3)[C@H](C)[C@@H](O)C/C1=N/NC(=O)NN)[C@H](C)C[C@@H]2OC (stereo partly shown) [JH-FK-21]"
  assay target: "IL-2 expression in primary mouse CD4+ T cells (mammalian calcineurin)"
  pIC50: 7.26
